Values were extracted from patent US20230295201A1.

system: RSV strain A2; assay: RSV HEp-2 EC50 (infectious cytopathic cell protection assay); assay type: cell-based; conditions: human respiratory syncytial virus, HEp-2, 96 h, HEp-2 cells, RSV A2, 4 days; read-out: RSV HEp-2 EC50
observed property: EC50 (nM)
Unit nM implied. Number only.

| compound | observed property | recorded number |
| --- | --- | --- |
| C[C@H](NP(=O)(OC[C@@]1(C#N)O[C@@H](c2ccc3c(N)ncnn23)[C@H](O)[C@@H]1O)Oc1ccccc1)C(=O)OC1COC1 (stereo partly drawn) [Example 44] | EC50 | 998 |
| COC1CCC(OC(=O)[C@H](C)NP(=O)(OC[C@@]2(C#N)O[C@@H](c3ccc4c(N)ncnn34)[C@H](O)[C@@H]2O)Oc2ccccc2)CC1 (stereo partly drawn) [Example 165] | EC50 | 1940 |

Consider the compound shown here: C[C@H](NP(=O)(OC[C@@]1(C#N)O[C@@H](c2ccc3c(N)ncnn23)[C@H](O)[C@@H]1O)Oc1ccccc1)C(=O)OC1CCNCC1 (mixture of isomers) [Example 145] What is its recorded EC50?
2900
